Each record here notes measured protein stability index.
TEST_PROTOCOL: protein stability index of a GFP-peptide fusion (GPS, HEK-293T) (PSI 1-6); higher = more stable;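 also: 24-mer peptide tiles fused after GFP, lentivirally expressed, FACS-sorted into six equal bins by GFP/DsRed ratio, decoded by Illumina sequencing, PSI is the read-weighted mean bin number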
REPORTED_CONDITIONS: treatment: DMSO; c terminus: a fixed tail appended
OBSERVATION_TYPE: protein stability index

{"SEQ_TEXT": "EYEGGHIKTAVNLPLERDAESFLL [CDC25B]", "OBSERVATION_TYPE": "protein stability index", "NUMERIC_READOUT": 3.91}
{"SEQ_TEXT": "LFQRKLSWIKMTKLEYEEIALDLT [FAN1]", "OBSERVATION_TYPE": "protein stability index", "NUMERIC_READOUT": 3.02}
{"SEQ_TEXT": "RHRSADVLGVADGVGGWRDYGVDP [PPTC7]", "OBSERVATION_TYPE": "protein stability index", "NUMERIC_READOUT": 4.14}
{"SEQ_TEXT": "ERPWIKRMIFKLFSQETVMKFVPR [APMAP]", "OBSERVATION_TYPE": "protein stability index", "NUMERIC_READOUT": 2.71}
{"SEQ_TEXT": "AFADTHSCRELLRIADKFTQHNFQ [KLHL20]", "OBSERVATION_TYPE": "protein stability index", "NUMERIC_READOUT": 2.09}
{"SEQ_TEXT": "GIDLAVYETLKNAWLQHYAVNSAD [SLC25A25]", "OBSERVATION_TYPE": "protein stability index", "NUMERIC_READOUT": 2.84}
